Assay: antimalarial activity against Dd2 strain (AID 2302);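 further: 0% = DMSO untreated growth and 100% = chloroquine plus artemisinin killed control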
Details: P. falciparum Dd2 in RBCs, LDH growth readout, 72 h; at 2 µM; stronger effect = higher value
Category key, based on recorded growth inhibition: lower band (below 60%), central band (60% to below 90%), upper band (90% or more)

Check out these entries, answers already filled in.
| compound | class |
| --- | --- |
| N#Cc1ccc(CN2CCCN(Cc3cccc(NC(=O)c4ccc(Cl)c(Cl)c4)c3)CC2)cc1 | lower band |
| CCCCCCNC(=O)C1Cc2c([nH]c3ccc(C)cc23)C2(CCN(CCc3ccccc3)CC2)N1 (stereo not given) | lower band |
| CN(C)CCCNc1ncnc2c1[nH]c1ccc(F)cc12 | lower band |
| CC1CCc2c(C(=O)N3CCc4ccccc4C3)csc2C1 (stereo not given) | central band |
| CN1CCCN(Cc2ccc(-c3ccc(NC(=O)c4cccc(Cl)c4)cc3)cc2)CC1 | central band |

Looking at CCS(=O)(=O)c1ccc(-c2cnc3[nH]cc(-c4ccc(N)cc4)c3c2)cc1 , which class would you pick?
upper band

###

Measured growth inhibition accompanies every entry in the list below.
Test: antimalarial activity against Dd2 strain (AID 2302);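 further: 0% = DMSO untreated growth and 100% = chloroquine plus artemisinin killed control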
Details: P. falciparum Dd2 in RBCs, LDH growth readout, 72 h; at 2 µM; stronger effect = higher value
Field format: number, assumed %, no unit text.

Here is how some compounds turned out for growth inhibition.
| compound | growth inhibition / % |
| --- | --- |
| CC[C@H](C)CNC(=O)c1ccnc(-c2cccc(CN3CCC(N4CCCC4)CC3)c2)c1 | 12 |
| COC(=O)c1ccc(C2OC3(C(=O)c4ccccc4C3=O)C(OC)=C2Cl)cc1C(C)=O (centres undefined) | 85 |
| Cc1[nH]c(C)c(-c2ccc(-c3ccc(OC(F)(F)F)cc3)nc2)c(=O)c1Cl | 95 |

Reported growth inhibition for Nc1nc(N)c2c(Cl)c(CNc3cccc(C(=O)O)c3)ccc2n1 : what is it?
97

Also CN(C)c1ccc(-c2csc(C(=O)NC3CCN(Cc4ccc(C(C)(C)C)cc4)C3)c2)cc1 (centres undefined) ?
50

Also COc1ccc2nc(NC3=NC4(c5ccccc5)N=C(Nc5nc6ccc(OC)cc6[nH]5)NC4(c4ccccc4)N3)[nH]c2c1 (centres undefined) ?
85

Also CC(=NNC(=S)Nc1ccccc1Cl)c1ccccn1 ?
99

Also O=C(c1cccc(-c2noc(C(F)(F)F)n2)c1)N1CCN(c2ccncc2)CC1 ?
56

Also CCc1cn2c3c(cc(C(=O)N[C@@H](Cc4ccccc4)[C@H](O)CNC4CCCCC4)cc13)N(CC)S(=O)(=O)CC2 ?
98

###

Target: L-lactate dehydrogenase (Plasmodium falciparum (isolate CDC / Honduras))
Experiment: PfLDH activity inhibition – cell lysate, 3D7 strain, counter-screen for P. falciparum growth inhibition project (AID 2304);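 further: 0% = vehicle and 100% = reference inhibitor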
Conditions: P. falciparum 3D7 crude extract, LDH APAD/NBT absorbance; at 2 µM; stronger effect = higher value
Measured inhibition accompanies every entry in the list below.
Field format: number, assumed %, no unit text.

| compound | system | measured |
| --- | --- | --- |
| O=C(/C=C/c1ccc(Cl)c(Cl)c1)NCCCCCN1CCC(NC(=S)Nc2ccc(Cl)c(Cl)c2)CC1 | L-lactate dehydrogenase (Plasmodium falciparum (isolate CDC / Honduras)) | 2 |
| O=C(NCCCCN1CCC(c2ccc(C(F)(F)F)cc2C(F)(F)F)CC1)c1ccc(NC(=O)c2ccc(Cl)cc2)cc1 | L-lactate dehydrogenase (Plasmodium falciparum (isolate CDC / Honduras)) | 7 |
| N#Cc1cccc(CN2CCCN(Cc3ccc(C(=O)Nc4ccc(Cl)cc4)cc3)CC2)c1 | L-lactate dehydrogenase (Plasmodium falciparum (isolate CDC / Honduras)) | 1 |

Consider the additional compound presented here.
Reported inhibition for COc1cc(-c2nnc(SCC(=O)Nc3cc(C)on3)n2C)cc(OC)c1O : what is it?
5

###

Test: antimalarial activity against Dd2 strain (AID 2302);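 further: 0% = DMSO untreated growth and 100% = chloroquine plus artemisinin killed control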
Settings: P. falciparum Dd2 in RBCs, LDH growth readout, 72 h; at 2 µM; stronger effect = higher value
Please note: y applies when growth inhibition is 70% or greater, and n applies otherwise.

Check out these entries, answers already filled in.
| compound | class |
| --- | --- |
| COc1ccc2nccc(NN=Cc3ccc(F)cc3)c2c1 | n |
| CC(=O)Nc1ccc(CN2CCCN(c3cc(NC(=O)c4cccc(C)c4)ccn3)CC2)cc1 | n |
| CC1CCCCN1CCCNc1ncc2c(-c3ccc(NC(=O)Nc4cc(C(F)(F)F)ccc4F)c(F)c3)nn(C)c2n1 (centres undefined) | y |
| Cc1ccc(F)c(NC(=O)c2c(-c3c(F)cccc3Cl)noc2C)c1 | n |
| CCC(CC)N1C(=O)C(c2ccccc2)(c2ccccc2)N=C1N | n |

Would you say CN1CCN(CCCN(Cc2csc(-c3ccc(CNCc4ccccc4)cc3)n2)S(=O)(=O)c2ccccc2)CC1 shows growth inhibition at minimum 70%?
y

Also Fc1ccc(Nc2ccnc3cc(-c4ccc(CN5CCOCC5)o4)ccc23)c(Cl)c1 ?
y

Also Cc1noc(C)c1-c1cccc(CNCc2cccc(-c3ccc(-c4nc5c(C)cccc5[nH]4)s3)c2)c1 ?
y

###

Biological target: L-lactate dehydrogenase (Plasmodium falciparum (isolate CDC / Honduras)) (UniProt Q27743)
Sequence (Q27743 whole entry, looked up): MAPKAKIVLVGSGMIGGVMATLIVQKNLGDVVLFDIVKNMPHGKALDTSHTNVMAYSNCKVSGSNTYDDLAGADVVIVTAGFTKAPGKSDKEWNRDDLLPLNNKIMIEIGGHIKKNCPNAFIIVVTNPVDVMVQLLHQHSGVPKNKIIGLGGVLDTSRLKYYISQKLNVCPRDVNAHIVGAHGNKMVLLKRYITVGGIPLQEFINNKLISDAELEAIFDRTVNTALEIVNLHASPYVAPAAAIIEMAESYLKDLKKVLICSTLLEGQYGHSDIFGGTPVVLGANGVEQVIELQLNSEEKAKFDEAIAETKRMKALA
Assay: PfLDH activity inhibition – cell lysate, 3D7 strain, counter-screen for P. falciparum growth inhibition project (AID 2304);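 further: 0% = vehicle and 100% = reference inhibitor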
Conditions: P. falciparum 3D7 crude extract, LDH APAD/NBT absorbance; at 2 µM; stronger effect = higher value
Measured inhibition accompanies every entry in the list below.
Field format: number, assumed %, no unit text.

Here is how some compounds turned out for inhibition.
| compound | measured |
| --- | --- |
| CCCN(CCCN(CCCN(CCC)C(C)C)c1cc(C)nc(Nc2ccc(Cl)cc2)n1)C(C)C | 0 |
| COc1ccc(C(C(=O)NC2CCN(C[C@H](O)c3ccnc4ccc(OC)cc34)CC2)N2CCN(c3ccc(F)cc3)CC2)cc1 (some centres undefined) | -6 |
| COc1cc(C=Cc2ccc3ccccc3n2)cc(Br)c1OCC(=O)N(C)C | 3 |

Consider the additional compound presented here.
Reported inhibition for CC1(C)N=C(N)N=C(N)N1c1cccc(I)c1 : what is it?
-2

###

Test: human hepatoma cell viability loss – ATP luminescence, cytotoxicity control for P. falciparum antimalarial project, primary screen (AID 2303);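 further: 0% = DMSO wells and 100% = digitonin-killed cells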
Settings: HepG2 viability, 24-48 h, at 10 µM
The source made the active and inactive calls.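 The calls were made as follows: active = inhibition above 50%; inactive = the rest.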
Response enum: 1 (active), 0 (inactive)

What was the test verdict on NC1CCN(c2cnn(Cc3cccc(NC(=O)Nc4ccc(-c5ccccc5)cc4)c3)c(=O)c2Cl)CC1 ?
0

Also Cn1nc(-c2ccc(NC(=O)Nc3cc(C(F)(F)F)cc(C(F)(F)F)c3)c(F)c2)c2cnc(NCCN3CCOCC3)nc21 ?
0

Also O=C(c1cccc(-c2noc(C(F)(F)F)n2)c1)N1CCN(c2nsc3ccccc23)CC1 ?
0

Also CN(CC(=O)Nc1cc(C(F)(F)F)ccc1-n1cncn1)Cc1nc2ccccc2s1 ?
0

Also COc1ccccc1N1CCN(c2cccc(F)c2C#N)CC1 ?
0

Also Cc1cccc2[nH]c(-c3cccc(-c4ccc(NC(=O)C5CC(=O)Nc6ccccc65)cc4)c3)nc12 (centres undefined) ?
0

Also O=C(Nc1ccc(F)cc1)c1nc2ccccc2nc1Cl ?
0

Also O=C(Nc1cc(F)cc(-c2cccnc2)c1)c1ccc2c(=O)n(Cc3ccccc3)cnc2c1 ?
0

Also CN(CCCCCNC(=O)/C=C/c1ccc(Cl)c(Cl)c1)CCc1c[nH]c2ccccc12 ?
0

###

Assay: human hepatoma cell viability loss – ATP luminescence, cytotoxicity control for P. falciparum antimalarial project, primary screen (AID 2303);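 further: 0% = DMSO wells and 100% = digitonin-killed cells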
Settings: HepG2 viability, 24-48 h, at 10 µM, stronger effect = higher value
measuredParameter: inhibition (%)
Field format: number, assumed %, no unit text.

Here is how some molecules turned out for inhibition.
| molecule | unitsOfMeasure | inhibition |
| --- | --- | --- |
| Cc1cc(CN2CC[C@H](NC(=O)c3ccc(Cl)c(Cl)c3)C2)ccc1OC1CCN(C)C1 (some centres undefined) | % | 71 |
| CCN(CC)CCOC(=O)c1ccc(NC(=O)c2cn(-c3ccccc3)nc2-c2cccs2)cc1 | % | 25 |
| CCC(C)(C)c1ccc(N2C(N)=NC(N)=NC2(C)C)cc1 | % | 40 |
| COc1cccc2c1CCN(CCN1CCC(NC(=O)c3ccc(-c4cccc(Cl)c4Cl)cc3)CC1)C2 | % | 47 |
| Nc1ccnc2ccc(OCCCCCCc3ccccc3)cc12 | % | 96 |
| O=S(=O)(c1ccccc1)n1ccc2cc(Nc3ncnc4cc(C#C[C@H]5CCCN5)sc34)ccc21 | % | 50 |
| CC(C)N(Cc1ccccc1)C(=O)CN1C(=O)COc2ccc(S(=O)(=O)N3CCCCCC3)cc21 | % | -11 |
| COc1ccc(CCN(C)CCc2ccc(NC(=O)c3cccc4c(=O)c5ccccc5sc34)cc2)cc1 | % | 24 |

Consider the additional molecule presented here.
Reported inhibition for Cc1cccc(-c2nn(-c3ccccc3)c3[nH]c(=O)c(CNC4CCCC4)cc23)c1 : what is it?
18
